Every entry's value here was drawn from ChEMBL document CHEMBL3507680.

assay: Human HepG2 cell viability assay in 384 well format; type: toxicity, cell-based; parameters: dose 125 nL, time 70.5 hour; concentration not given beside the values; conditions: HepG2 cells, read-out: Inhibition
property.label: cytotoxicity at 70.5 h (%)
Your answer should be a plain number; it is taken to be in %.

# example entries with known answers
CC(C)N1CCC(Cc2cncc(-c3cc(F)ccc3C(=O)O)n2)CC1 : 0.0602
CN(C)S(=O)(=O)N1C[C@H]2CCC[C@@]2(COCC2CCOCC2)C1 : 9.65
COC[C@@]12CCO[C@@H]1CCN(Cc1ccccc1F)C2 : -9.38
CCC1CCCCCN1C(=O)c1ccc(N2CCC(O)CC2)cc1 (stereo unspecified) : -1.83
Cc1csc(N2CCN(C(=O)CCn3cccn3)CC2)n1 : 3.65

Consider the additional molecule presented here.
Request: Value lookup for cytotoxicity at 70.5 h; key = COc1cc(C2CC(=O)Nc3c2c(=O)[nH]n3C2CCCCC2)ccc1O (stereo unspecified)
Result: -12.4

====

Form field: cytotoxicity at 70.5 h (one value per entry).
assay: Human HepG2 cell viability assay in 384 well format; type: toxicity, cell-based; parameters: dose 125 nL, time 70.5 hour; concentration not given beside the values; settings: HepG2 cells, read-out: Inhibition
Your answer should be a plain number; it is taken to be in %.

N#Cc1cccc(CN2CC[C@@H]3[C@@H]2CC(=O)N3CCN2CCCC2)c1 : -9.81
Cc1nc(CN2CCOC(Cn3cccn3)C2)nc2ccccc12 (stereo not given) : -12.1
N#Cc1cccc(CN2C(=O)C3(CCNCC3)Nc3ccccc32)c1 : 13.4
COC(=O)CCC(=O)N1CCc2nc(C(=O)N3CCCCC3)sc2CC1 : -1.33

Consider the additional compound presented here.
Request: Value lookup for cytotoxicity at 70.5 h; key = CC(C)[C@H](NC(=O)NC1CCS(=O)(=O)C1)C(=O)NCc1ccccc1 (stereo not given in full)
Result: -19

====

assay: Human HepG2 cell viability assay in 384 well format; assay type: toxicity, cell-based; set-up: dose 125 nL, time 70.5 hour; concentration not given beside the values; conditions: HepG2 cells, read-out: Inhibition
Form field: cytotoxicity at 70.5 h (one value per entry).
Provide a numeric answer, followed by its unit.

# example entries with known answers
O=C(NCc1nncn1-c1ccccc1)C1CCCC1 : -4.48%
O=C(NCCN1CCOCC1)c1cnc(-c2ccccc2F)s1 : -3.87%
Cc1nn(C(C)C)c(C)c1NC(=O)c1ccccc1 : -0.962%
Cc1ccc(CN(C)C(=O)NCC(C)(C)S(C)(=O)=O)s1 : -2.7%
Nc1nc2nc(C3CCN(C(=O)c4cscn4)C3)ccc2s1 (centres undefined) : -5.85%

Request: Value lookup for cytotoxicity at 70.5 h; key = `O=C(Cc1ccc(S(=O)(=O)C(F)F)cc1)N1CCC1`
Result: -10.6%

Request: Value lookup for cytotoxicity at 70.5 h; key = CN1CCC(N2CCCC(C(=O)N3Cc4ccccc4C3)C2)CC1 (centres undefined)
Result: -14.7%

Request: Value lookup for cytotoxicity at 70.5 h; key = NC(=O)NC(=O)CCN1CCCC1c1nc(C2CCCCC2)co1 (centres undefined)
Result: 13.4%

Request: Value lookup for cytotoxicity at 70.5 h; key = `CC(C)Cc1ccc(S(=O)(=O)Nc2ccc(=O)n(C)c2)cc1`
Result: 71.6%

Request: Value lookup for cytotoxicity at 70.5 h; key = `Clc1ccc2oc(C3CCN(Cc4nc(C5CC5)no4)CC3)nc2c1`
Result: -16.3%

Request: Value lookup for cytotoxicity at 70.5 h; key = Cn1cnnc1C1CCCN(C(=O)NCCNc2ccccn2)C1 (centres undefined)
Result: -15.9%

Request: Value lookup for cytotoxicity at 70.5 h; key = c1ncn(CC2CCCN2Cc2cn3ccsc3n2)n1 (centres undefined)
Result: -16.9%

Request: Value lookup for cytotoxicity at 70.5 h; key = Cc1ncc(CNC2CC(=O)N(CCc3cccc(Cl)c3)C2)n1C (centres undefined)
Result: -9.98%

====

assay: Human HepG2 cell viability assay in 384 well format; format: toxicity, cell-based; parameters: dose 125 nL, time 70.5 hour; concentration not given beside the values; conditions: HepG2 cells, read-out: Inhibition
property.label: cytotoxicity at 70.5 h (%)
Your answer should be a plain number; it is taken to be in %.

O=C(NCCc1nccs1)c1cn(CCN2CCNCC2)nn1 : -2.39
CN(C)c1cc(C(=O)NCC2(c3cccc(F)c3)CCOCC2)ccn1 : -4.88
CCN(C(=O)c1cnc(-c2ccc3c(c2)OCO3)s1)C1CC1 : 12.4

Request: Value lookup for cytotoxicity at 70.5 h; key = `O=C(NCCOCC1CC1)Nc1ccc(F)cc1`
Result: -9.49

Request: Value lookup for cytotoxicity at 70.5 h; key = `CC(C)N1[C@H](CN(C)C)C[C@@H]2CN(c3ncc(F)cn3)CC[C@@H]21`
Result: 6.71

Request: Value lookup for cytotoxicity at 70.5 h; key = COc1ccc2cc(CN(C)C(C)c3nc(C(C)(C)C)no3)ccc2c1 (stereo unspecified)
Result: -5.37

Request: Value lookup for cytotoxicity at 70.5 h; key = `CC1(C)[C@H]2CC=C(CN3CCCn4nc(C(=O)O)cc4C3)[C@@H]1C2`
Result: -19.9

Request: Value lookup for cytotoxicity at 70.5 h; key = `O=C(c1ccc2cc[nH]c2c1)N1CCC(Nc2cccnn2)CC1`
Result: -4.46

Request: Value lookup for cytotoxicity at 70.5 h; key = CC1c2ncc(COCC3CCOCC3)n2CCN1S(C)(=O)=O (stereo unspecified)
Result: -1.95

Request: Value lookup for cytotoxicity at 70.5 h; key = OC1(CN2CCCCC2)CCN(c2nccc(C(F)(F)F)n2)C1 (stereo unspecified)
Result: 18.4

Request: Value lookup for cytotoxicity at 70.5 h; key = `Cn1cc(N2CC3(CCN(Cc4nccs4)CC3)OCC2=O)cn1`
Result: 39.5

====

experiment: Human HepG2 cell viability assay in 384 well format; format: toxicity, cell-based; parameters: dose 125 nL, time 70.5 hour; concentration not given beside the values; details: HepG2 cells, read-out: Inhibition
property.label: cytotoxicity at 70.5 h (%)
Your answer should be a plain number; it is taken to be in %.

# example entries with known answers
CN(C)CC1CSCCCN1C(=O)c1ccc(-c2ccccc2)cc1 (configuration not stated) : -0.605
Cc1noc(CN2CCN(C(C)C(=O)NCc3cccs3)CC2)n1 (configuration not stated) : 13.6
COc1c(Cl)cc(C(=O)NCCNc2ncccn2)cc1Cl : 20.5

Consider the additional compound presented here.
Request: Value lookup for cytotoxicity at 70.5 h; key = CCC(O)CN1CCN(C(=O)c2cccn2Cc2ccncc2)CC1 (configuration not stated)
Result: 21.3

====

assay: Human HepG2 cell viability assay in 384 well format; type: toxicity, cell-based; parameters: dose 125 nL, time 70.5 hour; concentration not given beside the values; conditions: HepG2 cells, read-out: Inhibition
Form field: cytotoxicity at 70.5 h (one value per entry).
Your answer should be a plain number; it is taken to be in %.

# example entries with known answers
CCn1nnc2c1C(COCCN(C)C)CN(S(=O)(=O)CC)C2 (stereo unspecified) : -1.87
CCCc1cc(=O)[nH]c(-n2nc(C3CC3)cc2N)n1 : 65.9
O=C(O)c1ccn(-c2ccccc2NS(=O)(=O)c2cccc(F)c2)n1 : 7.58
CCCN1CCN(c2nc(N)nc3c2nc(C)n3C)CC1 : 20.9
CC(=O)N1CC[C@H]2CC(=O)N(CCc3c[nH]cn3)CC[C@H]2C1 : -2.6
Cn1cc(CN2CC[C@]3(C[C@H](Oc4ccccn4)CO3)C2)cn1 : -6.32

Request: Value lookup for cytotoxicity at 70.5 h; key = CCOCCOc1ccccc1C(=O)N1CCCC(c2ncc[nH]2)C1 (stereo unspecified)
Result: -5

====

Form field: cytotoxicity at 70.5 h (one value per entry).
experiment: Human HepG2 cell viability assay in 384 well format; format: toxicity, cell-based; design: dose 125 nL, time 70.5 hour; concentration not given beside the values; settings: HepG2 cells, read-out: Inhibition
Your answer should be a plain number; it is taken to be in %.

Request: Value lookup for cytotoxicity at 70.5 h; key = `CCc1cc(CN(C)C(=O)c2cnon2)on1`
Result: -2.96

Request: Value lookup for cytotoxicity at 70.5 h; key = `O=C(NCCc1cccnc1)c1ccc2nccn2c1`
Result: -16.8

Request: Value lookup for cytotoxicity at 70.5 h; key = `COc1cccc2c1N(CC(=O)Nc1ccc(Cl)cn1)CCC2`
Result: 0.717

Request: Value lookup for cytotoxicity at 70.5 h; key = `CC(C)Nc1nc(N2CCCC2)nc2c1CCN(S(C)(=O)=O)CC2`
Result: -10.7

Request: Value lookup for cytotoxicity at 70.5 h; key = `O=C(CCc1nnc2ccccn2c1=O)NCc1cccnc1`
Result: -14.8

Request: Value lookup for cytotoxicity at 70.5 h; key = CNC(=O)c1ccc(NC(=O)NC(C)c2cc(C)oc2C)c(C)c1 (stereo unspecified)
Result: -5.7

Request: Value lookup for cytotoxicity at 70.5 h; key = `COc1ccccc1CN1C[C@@H]2CN(Cc3cccnc3)CCO[C@@H]2C1`
Result: 12.8

Request: Value lookup for cytotoxicity at 70.5 h; key = CSc1ccc(-c2nc(CN3CCCC(CNC(C)=O)C3)c(C)o2)cc1 (stereo unspecified)
Result: -3.75

Request: Value lookup for cytotoxicity at 70.5 h; key = `COCCN1CCC(CNC(=O)C2(NC(C)=O)CCCCC2)CC1`
Result: -8.37

Request: Value lookup for cytotoxicity at 70.5 h; key = `Cc1cc(Cc2ccc(S(=O)(=O)N3CCOCC3)cc2)c(=O)[nH]n1`
Result: 12.1

Request: Value lookup for cytotoxicity at 70.5 h; key = COCCCN1CC2(CCCN(c3ncnc4[nH]cnc34)C2)CCC1=O (stereo unspecified)
Result: -6.06
